Test system: 885724-159-R-J1-PDC KRAS PDC multicell spheroid viability;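 further: spheroids exposed to agents for 7 days before readout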
Method description: Anticancer human tumor 885724-159-R-J1-PDC patient-derived pancreatic adenocarcinoma cell line growth inhibition [KRAS2]
Applied conditions: second compound 10 µM; first compound 0.0316 µM; hits give low values
Measurement type: viability, T/C (%)

{"columns": ["Compound", "Output unit", "Val"],
 "data": [
  ["CC1COCCN1c1cc(-c2ccnn2C)c2ccnc(-c3ccn[nH]3)c2n1 (stereo not given) + COc1cc2nc(C)nc(NC(C)c3cc(N)cc(C(F)(F)F)c3)c2cc1OC1CCOC1", "%", 51.7],
  ["CCN1CCN(Cc2ccc(Nc3ncc(F)c(-c4cc(F)c5nc(C)n(C(C)C)c5c4)n3)nc2)CC1 + C=CC(=O)N1CCN(c2nc(=O)n(-c3c(C)ccnc3C(C)C)c3nc(-c4c(O)cccc4F)c(F)cc23)C(C)C1", "%", 84.8],
  ["Cn1nccc1Nc1nccc(-c2cc3c(s2)C(C)(C)N(CCN2CCOCC2)C3=O)n1 + CC1OCC2(CCN(c3cnc(Sc4ccnc(N)c4Cl)c(N)n3)CC2)C1N", "%", 57],
  ["COc1cc2nccc(Oc3ccc(NC(=O)C4(C(=O)Nc5ccc(F)cc5)CC4)cc3)c2cc1OC + COc1cc2nc(C)nc(NC(C)c3cc(N)cc(C(F)(F)F)c3)c2cc1OC1CCOC1", "%", 55],
  ["O=C(c1cc(Cc2n[nH]c(=O)c3ccccc23)ccc1F)N1CCN(C(=O)C2CC2)CC1 + COc1cc2nc(C)nc(NC(C)c3cc(N)cc(C(F)(F)F)c3)c2cc1OC1CCOC1", "%", 97],
  ["CC(=O)OC12COC1CC(O)C1(C)C(=O)C(O)C3=C(C)C(OC(=O)C(O)C(NC(=O)OC(C)(C)C)c4ccccc4)CC(O)(C(OC(=O)c4ccccc4)C21)C3(C)C (stereo not given) + CNCc1ccccc1-c1csc(C(C)Nc2nc(C)nc3cc(OC)c(OC)cc23)c1", "%", 0.17],
  ["COc1cc(Nc2ncc3c(n2)-c2ccc(Cl)cc2C(c2c(F)cccc2OC)=NC3)ccc1C(=O)O + C=CC(=O)N1CCN(c2nc(=O)n(-c3c(C)ccnc3C(C)C)c3nc(-c4c(O)cccc4F)c(F)cc23)C(C)C1", "%", 65.4],
  ["COc1cc2nccc(Oc3ccc(NC(=O)C4(C(=O)Nc5ccc(F)cc5)CC4)cc3)c2cc1OC + CC1OCC2(CCN(c3cnc(Sc4ccnc(N)c4Cl)c(N)n3)CC2)C1N", "%", 71.4],
  ["CCN1CCN(Cc2ccc(Nc3ncc(F)c(-c4cc(F)c5nc(C)n(C(C)C)c5c4)n3)nc2)CC1 + COc1cc2nc(C)nc(NC(C)c3cc(N)cc(C(F)(F)F)c3)c2cc1OC1CCOC1", "%", 28.3],
  ["CC(=O)OC12COC1CC(O)C1(C)C(=O)C(O)C3=C(C)C(OC(=O)C(O)C(NC(=O)OC(C)(C)C)c4ccccc4)CC(O)(C(OC(=O)c4ccccc4)C21)C3(C)C (stereo not given) + C=CC(=O)N1CCN(c2nc(=O)n(-c3c(C)ccnc3C(C)C)c3nc(-c4c(O)cccc4F)c(F)cc23)C(C)C1", "%", 84.1]
]}
